Task for the reader: assign each of the following molecules its reported Pentosidine production rate in 5 mM of medicament (%).
System: pentosidine
testName: Pentosidine production inhibiting effect with BSA and arabinose
Type: biochemical
measurementSetup: BSA and arabinose instead of plasma
Give the number first and the unit second.

The reported value for "CC1=NN(c2ccccc2)C(=O)/C1=C/c1ccc(O)cc1" in terms of Pentosidine production rate in 5 mM of medicament (%) is 0.04%

Form: molecule = CC1=NN(c2ccccc2)C(=O)C1Sc1nc(-c2ccc(C)cc2)cs1 (stereo not drawn) ; Pentosidine production rate in 5 mM of medicament (%) = 42.07%

Per the records, this molecule ( "CCOc1cc(/C=C2/C(=O)N(c3ccccc3Cl)N=C2C)ccc1O" ) has Pentosidine production rate in 5 mM of medicament (%) equal to 15.57%

Data point: CC1=NN(c2ccccc2)C(=O)C1C(c1ccccc1)c1c(C)nn(-c2ccccc2)c1O (stereo not drawn) ; Pentosidine production rate in 5 mM of medicament (%) = 7.52%

Noted for CC(=O)NC1C(=O)N(c2ccccc2)N=C1C (stereo not drawn) : its Pentosidine production rate in 5 mM of medicament (%) reads 54.21%

So for CC1=NN(c2ccccc2)C(=O)C1C1C(=O)N(c2ccccc2)N=C1C (stereo not drawn) , the logged Pentosidine production rate in 5 mM of medicament (%) turned out to be 60.96%

So, "CC1=NN(c2ccccc2)C(=O)C1(N1CCOCC1)N1CCOCC1" ? Its Pentosidine production rate in 5 mM of medicament (%) was 50.68%

In plain terms, "CCOC(=O)C1=NN(c2ccccc2)/C(=C2\C(=O)N(c3ccccc3)N=C2c2ccccc2)S1" has a documented Pentosidine production rate in 5 mM of medicament (%) of 87.24%

Record "O=C(O)c1cccc(N2N=C(c3ccccc3)/C(=C/c3ccccc3O)C2=O)c1" . Reported Pentosidine production rate in 5 mM of medicament (%): 0.02%

Looking up "CC1=NN(c2ccc(Cl)cc2)C(=O)/C1=C/c1cccc(O)c1" , I see its Pentosidine production rate in 5 mM of medicament (%) listed as 3.00%

Looking up "COC(=O)c1ccc(N2N=C(C)/C(=C/c3ccc4c(c3)OCO4)C2=O)cc1" , I found its Pentosidine production rate in 5 mM of medicament (%) recorded as 32.37%

// sample "COC(=O)c1ccc(N2N=C(C)/C(=C/c3ccc(-c4ccc(S(N)(=O)=O)cc4)o3)C2=O)cc1" , its Pentosidine production rate in 5 mM of medicament (%) was 37.81%

Sample Cc1ncc2c(c1O)C(c1c(C)nn(-c3ccccc3)c1O)OC2 (stereo not drawn) ; Pentosidine production rate in 5 mM of medicament (%) observed: 2.82%

Value of Pentosidine production rate in 5 mM of medicament (%) reported for the molecule "CC1=NN(c2cccc(Cl)c2)C(=O)/C1=C/c1cc2ccccc2[nH]c1=O" is 84.95%

Kindly note the recorded Pentosidine production rate in 5 mM of medicament (%) for CC1=NN(c2ccccc2)C(=O)C1CCC(=O)O (stereo not drawn) , which is 64.64%

// Pentosidine production rate in 5 mM of medicament (%) lookup, molecule = "COc1cc(/C=C2/C(=O)N(c3ccc(Cl)c(C(=O)O)c3)N=C2C)c(Cl)cc1O" , result: 46.25%

Form: molecule = CC1=NN(c2ccccc2)C(=O)C12Sc1ccccc1C2=O (stereo not drawn) ; Pentosidine production rate in 5 mM of medicament (%) = 22.83%

Recorded result, Cc1ncc2c(c1O)C(c1c(C)nn(-c3ccccc3)c1O)OC2.Cl (stereo not drawn) , Pentosidine production rate in 5 mM of medicament (%): 2.94%

---

Tested on: pentosidine
testName: Pentosidine production inhibiting effect with BSA and arabinose
Format: biochemical
measurementSetup: BSA and arabinose instead of plasma
Rule: Y for Pentosidine production rate in 5 mM of medicament (%) not less than 40%, N for anything less.

Task: Threshold query (Pentosidine production rate in 5 mM of medicament (%) >= 40%) on "CC(=O)c1ccc(N2N=C(C)/C(=C3\C(=O)Nc4ccccc43)C2=O)cc1"
Output: N

Task: Does the reported Pentosidine production rate in 5 mM of medicament (%) for COc1cc(/C=C2/C(=O)N(c3ccc(C(=O)OC(C)C)cc3)NC2C)ccc1O (stereo not drawn) fall at or above the 40% mark?
Output: N

Task: Dear colleague, could you confirm whether "CC1=NN(c2ccccc2Cl)C(=O)/C1=C/c1ccc(N(C)C)cc1" has Pentosidine production rate in 5 mM of medicament (%) at or above 40%?
Output: N

Task: Does Pentosidine production rate in 5 mM of medicament (%) meet or surpass 40% for CC1=NN(c2cccc([N+](=O)[O-])c2)C(=O)C1Sc1nnnn1-c1ccccc1 (stereo not drawn) ?
Output: Y

Task: Item "CC1=NN(c2cccc(F)c2)C(=O)/C1=C\c1ccc(N(C)C)cc1" with Pentosidine production rate in 5 mM of medicament (%) of 40% or above?
Output: Y

Task: Item "CN(C)c1ccc(/C=C2\C(=O)N(c3ccc(S(N)(=O)=O)cc3)N=C2C(F)(F)F)cc1" with Pentosidine production rate in 5 mM of medicament (%) of 40% or above?
Output: Y

Task: For this compound, is measured Pentosidine production rate in 5 mM of medicament (%) 40% or higher? "CCOC(=O)c1ccc(N2N=C(C(F)(F)F)/C(=C/c3cccs3)C2=O)cc1"
Output: Y

Task: Decide: is the reported value of Pentosidine production rate in 5 mM of medicament (%) for "CC1=NN(c2ccccc2)C(=O)/C1=C/c1c(C)nn(-c2ccccc2)c1O" equal to or greater than 40%?
Output: N

Task: Is Pentosidine production rate in 5 mM of medicament (%) for "CC1=NN(c2cccc(Cl)c2)C(=O)/C1=N/O" at or above 40%?
Output: Y

---

Tested on: pentosidine
testName: Pentosidine production inhibiting effect with BSA and arabinose
Type: biochemical
measurementSetup: BSA and arabinose instead of plasma
Provide the recorded Pentosidine production rate in 5 mM of medicament (%) for the entries that follow.

Form: compound = "CC1=NN(c2ccc(C)cc2)C(=O)/C1=C/c1ccc(O)c(O)c1" ; Pentosidine production rate in 5 mM of medicament (%) = 66.19%

According to the records, this compound "O=C1/C(=C\c2ccc(O)cc2)C(C(F)(F)F)=NN1c1ccccc1" displays Pentosidine production rate in 5 mM of medicament (%) of 66.76%

response.value for "CC1=NN(c2ccccc2)C(=O)/C1=C/c1ccc(Cl)cc1" (field: Pentosidine production rate in 5 mM of medicament (%)) = 9.09%

Record summary for "CC1=NN(c2ccc(S(N)(=O)=O)cc2)C(=O)C1=Cc1ccc(O)cc1" : reported Pentosidine production rate in 5 mM of medicament (%) = 7.09%

Pentosidine production rate in 5 mM of medicament (%) reported for this compound "COC(=O)c1cccc(-c2ccc(/C=C3\C(=O)N(c4ccc(S(N)(=O)=O)cc4)N=C3C)o2)c1" : 16.87%

Measured Pentosidine production rate in 5 mM of medicament (%) of CC1=NN(c2ccc(F)cc2)C(=O)C1C(c1ccccc1O)c1c(C)nn(-c2ccc(F)cc2)c1O (stereo not drawn) : 2.9%

Entry under test: "CC1=NN(c2cccc(Cl)c2)C(=O)/C1=C/c1ccc(O)cc1" . Its Pentosidine production rate in 5 mM of medicament (%) was 4.63%

Recorded Pentosidine production rate in 5 mM of medicament (%) (compound O=C(NC1=NN(c2ccccc2)C(=O)C1Sc1nnnn1-c1ccccc1)c1ccccc1 (stereo not drawn) ): 61.27%

# compound "CC1=NN(c2ccc(Cl)cc2)C(=O)/C1=C/c1ccc(O)cc1O" ; its Pentosidine production rate in 5 mM of medicament (%) = 68.32%

Entry under test: "CC1=NN(c2ccccc2)C(=O)/C1=C/c1ccc(OCc2ccccc2)cc1" . Its Pentosidine production rate in 5 mM of medicament (%) was 7.63%

Entry CC1=NN(c2ccccc2)C(=O)C1(O)S(=O)(=O)[O-].[Na+] (stereo not drawn) — recorded Pentosidine production rate in 5 mM of medicament (%) = 38.80%

Looking up "COc1cc(/C=C2\C(=O)N(c3ccc(Cl)cc3)N=C2C(F)(F)F)ccc1O" , I found its Pentosidine production rate in 5 mM of medicament (%) recorded as 28.86%

Query "CC1=NN(c2ccccc2)C(=O)/C1=C/N(C)C" yields Pentosidine production rate in 5 mM of medicament (%) of 62.43%

Input "CC1=NN(c2cccc(C(F)(F)F)c2)C(=O)/C1=C/C=C/c1ccccc1" . Output Pentosidine production rate in 5 mM of medicament (%): 80.08%

Briefly, Pentosidine production rate in 5 mM of medicament (%) measured for "COc1ccc(/C=C2/C(=O)N(c3ccccc3)N=C2C)c(OC)c1O" : 5.3%

---

Kindly supply the reported Pentosidine production rate in 5 mM of medicament (%) values for the records listed here.
Tested on: pentosidine
testName: Pentosidine production inhibiting effect with BSA and arabinose
Type: biochemical
measurementSetup: BSA and arabinose instead of plasma
Reply numerically in %, unit not repeated.

Summary: COc1ccc(-c2csc(SC3C(=O)N(c4ccccc4)N=C3C)n2)cc1 (centres unmarked) [compound 19] , pentosidine, Pentosidine production rate in 5 mM of medicament (%) = 40.19

Record for CC1=NN(c2cccc(C(=O)O)c2)C(=O)/C1=C\c1ccc(N2CCC(Cl)=N2)cc1 [compound 36] under target or system pentosidine: Pentosidine production rate in 5 mM of medicament (%) reported as 26.37

Measured Pentosidine production rate in 5 mM of medicament (%) (pentosidine), entry O=C(NC1=NN(c2ccccc2)C(=O)C1(O)S(=O)(=O)[O-])c1ccccc1.[Na+] (centres unmarked) [compound 27] : 2.83

Query CC1=NN(c2ccccc2)C(=O)C12C(c1ccccc1)C21C(=O)N(c2ccccc2)N=C1C (centres unmarked) [compound 30] on pentosidine; Pentosidine production rate in 5 mM of medicament (%) returned: 62.43

Form field Pentosidine production rate in 5 mM of medicament (%) for item CC1=NN(c2ccc(F)cc2)C(=O)/C1=C\c1c(C)nn(-c2ccccc2C)c1O [compound 46] on pentosidine: 15.69

Given the molecule CCc1ccc(N2N=C(C)/C(=C\c3ccc(O)cc3)C2=O)cc1 [compound 48] and test system pentosidine, the measured Pentosidine production rate in 5 mM of medicament (%) is 0.02

Entry CCCC1=NN(c2ccccc2)C(=O)C1CC(=O)c1ccccc1 (centres unmarked) [compound 20] : Pentosidine production rate in 5 mM of medicament (%) on pentosidine = 83.12

Measured Pentosidine production rate in 5 mM of medicament (%) for this entry CC1=NN(c2ccc(C)c(C)c2)C(=O)/C1=C\c1ccc(O)cc1O [compound 54] on pentosidine: 73.48
